Give measured inhibition for each item. Keep answers brief.
Target: Alpha glucosidase (Homo sapiens, UniProt O43451+P10253+P14410+Q2M2H8)
Assay: Inhibition of alpha-glucosidase (unknown origin) at 50 uM using 4-Nitrophenyl-alpha-D-glucopyranoside as substrate incubated foe 5 mins followed by substrate addition measured after 15 mins relative to control
Type: protein assay
Give bare numbers, in %.

Consider the following illustrative entries.
| smiles-code | tgt | u | inhibition |
| --- | --- | --- | --- |
| O=C1/C(=C/c2ccccc2)CCC/C1=C\c1cccc(O)c1 | Alpha glucosidase (Homo sapiens, UniProt O43451+P10253+P14410+Q2M2H8) | % | 65.1 |
| O=C(/C=C(O)/C=C/c1cccc(O)c1)c1cc(Cl)ccc1O | Alpha glucosidase (Homo sapiens, UniProt O43451+P10253+P14410+Q2M2H8) | % | 62.4 |
| O=C1/C(=C/c2ccccc2)CCC/C1=C\c1ccc(Cl)c(Cl)c1 | Alpha glucosidase (Homo sapiens, UniProt O43451+P10253+P14410+Q2M2H8) | % | 48.4 |

Field: inhibition. Fill in for each record below.
1. O=C1/C(=C/c2ccccc2)CCC/C1=C\c1ccccc1Cl
2. O=C(C1=C(O)/C(=C/c2cccc(O)c2)CCC1)c1ccccc1
3. O=C1/C(=C/c2ccccc2)CCC/C1=C\c1ccccc1Br

A.
[43, 43.2, 46.8]

---

Target: Alpha glucosidase (Homo sapiens, UniProt O43451+P10253+P14410+Q2M2H8)
Assay: Inhibition of alpha-glucosidase (unknown origin) at 50 uM using 4-Nitrophenyl-alpha-D-glucopyranoside as substrate incubated foe 5 mins followed by substrate addition measured after 15 mins relative to control
Type: protein assay
quantity-name: inhibition (%)
Answers are plain numbers, in %.

Consider the following illustrative entries.
| smiles-code | inhibition / % |
| --- | --- |
| COc1ccc(/C=C2\CCC/C(=C\c3ccccc3)C2=O)cc1 | 31.4 |
| Cc1ccc(/C=C2\CCC/C(=C\c3ccccc3)C2=O)cc1 | 34.1 |
| O=C(/C=C(O)/C=C/c1ccco1)c1cc(O)ccc1O | 98.4 |
| O=C(/C=C(O)/C=C/c1cc(O)ccc1O)c1ccc(O)cc1O | 86.6 |
| O=C(/C=C(O)/C=C/c1cc(O)ccc1O)c1cc(O)ccc1O | 96.9 |

Continue with the next compound.
Q. Form field: reported inhibition of O=C1/C(=C/c2ccccc2)CCC/C1=C\c1ccc(O)c(O)c1
A. 90.7

---

Biological target: Alpha glucosidase (Homo sapiens, UniProt O43451+P10253+P14410+Q2M2H8)
Assay: Inhibition of alpha-glucosidase (unknown origin) at 50 uM using 4-Nitrophenyl-alpha-D-glucopyranoside as substrate incubated foe 5 mins followed by substrate addition measured after 15 mins relative to control
Type: protein assay
Give measured inhibition for each item. Keep answers brief.
One number for each entry, in %.

Consider the following illustrative entries.
| molecule | tgt | u | reported-measurement |
| --- | --- | --- | --- |
| O=C1/C(=C/c2ccccc2)CCC/C1=C\c1ccc(O)cc1 | Alpha glucosidase (Homo sapiens, UniProt O43451+P10253+P14410+Q2M2H8) | % | 53 |
| O=C(/C=C(O)/C=C/c1ccc(O)c(O)c1)c1cc(Cl)ccc1O | Alpha glucosidase (Homo sapiens, UniProt O43451+P10253+P14410+Q2M2H8) | % | 85.6 |
| COc1ccc(/C=C2\CCC/C(=C\c3ccccc3)C2=O)c(OC)c1 | Alpha glucosidase (Homo sapiens, UniProt O43451+P10253+P14410+Q2M2H8) | % | 41 |
| O=C1/C(=C/c2ccccc2)CCC/C1=C\c1ccccc1F | Alpha glucosidase (Homo sapiens, UniProt O43451+P10253+P14410+Q2M2H8) | % | 43 |
| O=C1/C(=C/c2ccccc2)CCC/C1=C\c1cccc(F)c1 | Alpha glucosidase (Homo sapiens, UniProt O43451+P10253+P14410+Q2M2H8) | % | 39.8 |
| O=C1/C(=C/c2ccccc2)CCC/C1=C\c1ccc(Br)cc1 | Alpha glucosidase (Homo sapiens, UniProt O43451+P10253+P14410+Q2M2H8) | % | 29.1 |

Field: inhibition. Fill in for each record below.
1. O=C1/C(=C/c2ccccc2)CCC/C1=C\c1cccc(Cl)c1Cl
2. O=C1/C(=C/c2ccccc2)CCC/C1=C\c1ccc(Cl)cc1
3. COc1cc(/C=C2\CCC/C(=C\c3ccccc3)C2=O)cc(OC)c1OC
4. O=C(/C=C(O)/C=C/c1ccc(O)cc1)c1ccccc1O
5. O=C1/C(=C/c2ccccc2)CCC/C1=C\c1cccc(Br)c1
6. O=C(/C=C(O)/C=C/c1ccc(O)cc1O)c1ccccc1O
7. COc1ccc(OC)c(/C=C2\CCC/C(=C\c3ccccc3)C2=O)c1

A.
1. 44
2. 27.6
3. 16.3
4. 20.4
5. 27.2
6. 61.2
7. 43.8

Field: inhibition. Fill in for each record below.
1. O=C1/C(=C/c2ccccc2)CCC/C1=C\c1ccc(F)cc1
2. O=C(/C=C(O)/C=C/c1cccc(O)c1)c1ccccc1O
3. O=c1c(O)c(-c2ccc(O)c(O)c2)oc2cc(O)cc(O)c12 [QUERCETIN]
4. O=C(/C=C(O)/C=C/c1ccc(O)cc1)c1cc(Cl)ccc1O
5. COc1cccc(/C=C2\CCC/C(=C\c3ccccc3)C2=O)c1OC
6. O=C(/C=C(O)/C=C/c1ccc(O)c(O)c1)c1ccccc1O
7. O=C(C1=C(O)/C(=C/c2ccc(O)cc2)CCC1)c1ccccc1
8. Cc1cccc(/C=C2\CCC/C(=C\c3ccccc3)C2=O)c1

A.
1: 34; 2: 40.4; 3: 83.6; 4: 45.3; 5: 31.8; 6: 93.6; 7: 34.9; 8: 47.9

Field: inhibition. Fill in for each record below.
1. O=C(C1=C(O)/C(=C/c2ccc(O)c(O)c2)CCC1)c1ccccc1
2. O=C1/C(=C/c2ccccc2)CCC/C1=C\c1ccc(F)c(F)c1

A.
1: 55.9; 2: 37.8
